Recorded values, source patent US20050169909A1.

assay system: T1, human IgE (human, UniProt P01854-1 1-428)
T1 construct: it may be SE44; also called intact human IgE; biotinylated IgE
T1 sequence (P01854 other isoform, or with tags, fused parts or gaps): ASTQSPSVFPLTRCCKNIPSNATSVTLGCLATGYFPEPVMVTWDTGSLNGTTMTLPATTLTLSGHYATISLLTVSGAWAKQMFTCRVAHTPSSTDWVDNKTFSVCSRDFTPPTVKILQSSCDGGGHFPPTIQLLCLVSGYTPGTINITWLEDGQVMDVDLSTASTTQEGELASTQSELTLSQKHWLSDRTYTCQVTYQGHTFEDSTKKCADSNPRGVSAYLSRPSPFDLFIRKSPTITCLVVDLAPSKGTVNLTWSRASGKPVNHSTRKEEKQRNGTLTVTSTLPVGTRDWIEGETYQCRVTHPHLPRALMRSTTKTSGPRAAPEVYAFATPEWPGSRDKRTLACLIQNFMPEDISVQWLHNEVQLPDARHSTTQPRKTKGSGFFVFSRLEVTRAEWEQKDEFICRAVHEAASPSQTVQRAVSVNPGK
experiment notes: method not stated at the table (Example 10 lists Biacore analysis); target IgE taken from context
measurement type: Kd (pM)
One number for each entry, in pM.

murine anti-IgE monoclonal antibody TES-C21 (antibody, V domains shown, Murine parent antibody; also called murine mAb TES-C21; parent TES-C21) VH: QVQLQQSGAELMKPGASVKISCKTTGYTFSMYWLEWVKQRPGHGLEWVGEISPGTFTTNYNEKFKAKATFTADTSSNTAYLQLSGLTSEDSAVYFCARFSHFSGSNYDYFDYWGQGTSLTVSS VL: DILLTQSPAILSVSPGERVSFSCRASQSIGTNIHWYQQRTDGSPRLLIKYASESISGIPSRFSGSGSGTEFTLNINSVESEDIADYYCQQSDSWPTTFGGGTKLEIK :: 614
Anti-IgE CL-2C (antibody, V domains shown, ATCC PTA-5678; also called MAb 2 (CL-2C); clone 2C) VH: QVQLVQSGAEVMKPGSSVKVSCKASGYTFSWYWLEWVRQAPGHGLEWMGEIDPGTFTTNYNEKFKARVTFTADTSTSTAYMELSSLRSEDTAVYYCARFSHFSGSNYDYFDYWGQGTLVTVSS VL: EIVMTQSPATLSVSPGERATLSCRASQSIGTNIHWYQQKPGQAPRLLIYYASESISGIPARFSGSGSGTEFTLTISSLQSEDFAVYYCQQSWSWPTTFGGGTKVEIKT :: 1.47
Anti-IgE CL-5A (antibody, V domains shown, ATCC PTA-5679; also called MAb 1(CL-5A); clone 5A) VH: QVQLVQSGAEVMKPGSSVKVSCKASGYTFSWYWLEWVRQAPGHGLEWMGEIEPGTETTNYNEKFKARVTFTADTSTSTAYMELSSLRSEDTAVYYCARFSHFSGSNYDYFDYWGQGTLVTVSS VL: EIVMTQSPATLSVSPGERATLSCRASQSIGTNIHWYQQKPGQAPRLLIYYASESISGIPARFSGSGSGTEFTLTISSLQSEDFAVYYCQQSWSWPTTFGGGTKVEIKT :: 0.158

Please list Kd recorded for the binder Anti-IgE CL-5I (antibody, V domains shown, ATCC PTA-5680; also called MAb 3 (CL-5I)) VH: QVQLVQSGAEVMKPGSSVKVSCKASGYTFSMYWLEWVRQAPGHGLEWMGEIDPGTFETNYNEKFKARVTFTADTSTSTAYMELSSLRSEDTAVYYCARFSHFSGSNYDYFDYWGQGTLVTVSS VL: EIVMTQSPATLSVSPGERATLSCRASQSIGTNIHWYQQKPGQAPRLLIYYASESISGIPARFSGSGSGTEFTLTISSLQSEDFAVYYCQQSWSWPTTFGGGTKVEIKT
3.2
